I'd be grateful if you could share measured activation for these entries.
Molecular target: Androgen receptor (Homo sapiens)
Test: qHTS assay for small molecule agonists of androgen receptor signaling (AID 588515); also: % is scaled to controls: 0 for no effect and ±100 for the full control effect
Details: AR-UAS-bla HEK293, beta-lactamase ratio, agonist 16 h; stronger effect = higher value
Records with an inconclusive call do not appear. Activity calls are given as the source filed them. Calls follow the shape of the dose curve; as a rule, active = well fitted curve in the direction sought with a large enough effect in the signal ratio, with a control signal flat; inconclusive = small, poorly fitted or top-dose-only effect, or effect the other way, or a change in a side signal; inactive = no such curve, though single readings can be large or run the other way; the % refers to the signal ratio.

Form field: activation recorded for Nc1c(N=Nc2ccc(S(=O)(=O)CCOS(=O)(=O)O)cc2)c(S(=O)(=O)O)cc2cc(S(=O)(=O)O)c(N=Nc3ccc(S(=O)(=O)CCOS(=O)(=O)O)cc3)c(O)c12 with Androgen receptor (Homo sapiens) (enter value)
7.7% (inactive)

Record CC1COCc2cc3c(cc21)C(C)(C)C(C)C3(C)C (stereo not drawn) : what is its activation with Androgen receptor (Homo sapiens)?
12.8% (inactive)

Can you look up activation on Androgen receptor (Homo sapiens) for CCOC(=O)C1=NN(c2ccc(Cl)cc2Cl)C(C)(C(=O)OCC)C1 (stereo not drawn) ?
-14.3% (inactive)

Please tell me: activation of CC1(C)CC(NCCCCCCNC2CC(C)(C)NC(C)(C)C2)CC(C)(C)N1 , system Androgen receptor (Homo sapiens)?
6.67% (inactive)

Item CCCCCCCOC(=O)c1ccccc1C(=O)OCCCCCCC with Androgen receptor (Homo sapiens) - activation?
-1.72% (inactive)

For Androgen receptor (Homo sapiens), provide activation of O=C(O)c1ccc(C(=O)O)c(C(=O)O)c1 please.
-3.3% (inactive)

Lookup: activation / Androgen receptor (Homo sapiens) / N[C@@H]1[C@@H](O)[C@H](O)[C@@H](CO)O[C@H]1O
9.13% (inactive)

Lookup: activation / Androgen receptor (Homo sapiens) / CC1(C)C(=O)N(Br)C(=O)N1Br
-9.37% (inactive)

Provide the documented activation with Androgen receptor (Homo sapiens) as the system for CSc1ccc(Cl)cc1
-7.93% (inactive)

Test system Androgen receptor (Homo sapiens); read-out activation; what value for CC(C)Cc1c(C(=O)O)c(C(F)F)nc(C(F)(F)F)c1C1=NCCS1 ?
-2.77% (inactive)

Can you look up activation on Androgen receptor (Homo sapiens) for CN(C)Cc1cc(CN(C)C)c(O)c(CN(C)C)c1 ?
-17.5% (inactive)

Give the reported activation for C[Si](Cl)(Cl)c1ccccc1 (system: Androgen receptor (Homo sapiens)).
5.21% (inactive)

Query the reported activation for Androgen receptor (Homo sapiens); item: CN(C)c1nc(=O)n(C2CCC(O)CC2)c(=O)n1C (stereo not drawn)
6.02% (inactive)

Request: activation, test system Androgen receptor (Homo sapiens), entry OCc1cccc(Oc2ccccc2)c1
3.06% (inactive)

// lookup activation | system=Androgen receptor (Homo sapiens) | key= O=S(c1ccc(Cl)cc1)c1cc(Cl)c(Cl)cc1Cl (stereo not drawn)
-11.5% (inactive)

API: value(readout=activation, system=Androgen receptor (Homo sapiens)) for record CCSC(=O)N(CC(C)C)CC(C)C
3.31% (inactive)

So what activation did COC(=O)CSc1cc(N=c2sc(=O)n3n2CCCC3)c(F)cc1Cl get with Androgen receptor (Homo sapiens)?
-5.93% (inactive)

Could you share what activation was measured for CCCCCCCCCC[N+](C)(C)Cc1ccccc1 , tested on Androgen receptor (Homo sapiens)?
-12.2% (inactive)

Look up activation with Androgen receptor (Homo sapiens) for this compound: CCCCCCCC[Si](Cl)(Cl)Cl
3.85% (inactive)

Enter reported activation observed with Androgen receptor (Homo sapiens) for CCCC/C=C\CCCCCCCCO
1.62% (inactive)

Can you look up activation on Androgen receptor (Homo sapiens) for BrC1CCC(Br)C(Br)CCC(Br)C(Br)CCC1Br (stereo not drawn) ?
-5.15% (inactive)

Hi! What's the reported activation for CCC(=O)C1C(=O)CC(C(=O)O)CC1=O (stereo not drawn) on Androgen receptor (Homo sapiens)?
-3.36% (inactive)

Please provide the recorded activation for CCCCCCCCCCCCCC(=O)OC , tested on Androgen receptor (Homo sapiens).
9.07% (inactive)

Find activation (Androgen receptor (Homo sapiens)) for the entry CC1(C)[C@@H](C=C(Cl)Cl)[C@@H]1C(=O)OCc1cccc(Oc2ccccc2)c1
-22.2% (inactive)

// fetch Androgen receptor (Homo sapiens) activation for CCCCCCCC/C=C\CCCCCCCCCCCCC
5.8% (inactive)

Kindly state the measured activation obtained for CO[Si](CCCNCCN)(OC)OC with Androgen receptor (Homo sapiens).
4.85% (inactive)

Record C[Si](C)(Cl)[Si](C)(C)Cl : what is its activation with Androgen receptor (Homo sapiens)?
-5.2% (inactive)

State its activation on Androgen receptor (Homo sapiens): Cl[Si](Cl)(Cl)c1ccccc1
7.73% (inactive)

Short answer please: activation, Androgen receptor (Homo sapiens), entry C=C(C)C(=O)OCCCCCCCCCCCCCCCC
10.8% (inactive)

Can you look up activation on Androgen receptor (Homo sapiens) for NN(c1ccccc1)c1ccccc1 ?
8.8% (inactive)

Recall the recorded activation for O=c1[nH]c(=O)c2[nH]cnc2[nH]1 with Androgen receptor (Homo sapiens) and state it.
2.45% (inactive)

Please state recorded activation (tested on Androgen receptor (Homo sapiens)) of COC(=O)c1cccc(C(=O)OC)c1
-4.83% (inactive)

Lab note: need activation with Androgen receptor (Homo sapiens) for entry CCc1cccc(C)c1N(C(=O)CS(=O)(=O)O)[C@@H](C)COC , please look it up.
-2.5% (inactive)

Please state recorded activation (tested on Androgen receptor (Homo sapiens)) of Cc1ccc(N=Nc2c(O)ccc3ccccc23)c([N+](=O)[O-])c1
8.82% (inactive)

// lookup activation | system=Androgen receptor (Homo sapiens) | key= CC(C)(C)C(O)/C(=C\c1ccc(Cl)cc1)n1cncn1 (stereo not drawn)
-3.93% (inactive)

Test system Androgen receptor (Homo sapiens); read-out activation; what value for O=C(O)c1ccc2c(c1)C(=O)OC2=O ?
5.43% (inactive)

# get_value(readout= activation, system= Androgen receptor (Homo sapiens)) for O=C(c1ccc(Cl)cc1)c1ccc(Cl)cc1
19.9% (inactive)

What reported activation corresponds to C=C(C)C(=O)OCC[N+](C)(C)C on Androgen receptor (Homo sapiens)?
0.258% (inactive)

Please provide the recorded activation for OCCC(F)(F)C(F)(F)C(F)(F)C(F)(F)C(F)(F)C(F)(F)C(F)(F)C(F)(F)F , tested on Androgen receptor (Homo sapiens).
13.8% (inactive)

Observed activation on Androgen receptor (Homo sapiens) for CC1(C)[C@@H]([C@@H](Br)C(Br)(Br)Br)[C@H]1C(=O)O[C@H](C#N)c1cccc(Oc2ccccc2)c1 , please.
-17.3% (inactive)

# get_value(readout= activation, system= Androgen receptor (Homo sapiens)) for C[Si]1(C)O[Si](C)(C)O[Si](C)(C)O1
-4.74% (inactive)

Query activation on Androgen receptor (Homo sapiens) for O=S(=O)(O)c1ccc(N=Nc2cc(S(=O)(=O)O)c3ccccc3c2O)c2ccccc12
11.4% (inactive)

Can you look up activation on Androgen receptor (Homo sapiens) for FC(F)(F)c1ccc(Cl)c(Cl)c1 ?
6.47% (inactive)
